Molecular target: hERG (Kv11.1, KCNH2) (Homo sapiens)
Assay: in vitro
Description: MMV: Malaria Box compounds were tested for inhibition of the human ether a go-go related gene (hERG), Kv11.1 channel, using IonWorks 384-well patch clamp electrophysiology at 11.1uM (3 independent assay plates up to 12 cells per concentration).
Okay, here is how we bin by inhibition at 11.1 µM: small value = under 20%, mid value = from 20% up to 80%, large value = 80% and over

>>> class("O=C(Nc1ccc(N2CCCCC2)c(Cl)c1)c1ccc(Br)o1")
"mid value"

Now turn to the next compound.
Ask: Which bin should I file "CCN1CCN(c2cc(C)c3cc(NC(=O)c4ccc(OC)c(OC)c4)ccc3n2)CC1" under?
Reply: mid value

----------
Molecular target: hERG (Kv11.1, KCNH2) (Homo sapiens, UniProt Q12809)
Sequence (Q12809 whole entry): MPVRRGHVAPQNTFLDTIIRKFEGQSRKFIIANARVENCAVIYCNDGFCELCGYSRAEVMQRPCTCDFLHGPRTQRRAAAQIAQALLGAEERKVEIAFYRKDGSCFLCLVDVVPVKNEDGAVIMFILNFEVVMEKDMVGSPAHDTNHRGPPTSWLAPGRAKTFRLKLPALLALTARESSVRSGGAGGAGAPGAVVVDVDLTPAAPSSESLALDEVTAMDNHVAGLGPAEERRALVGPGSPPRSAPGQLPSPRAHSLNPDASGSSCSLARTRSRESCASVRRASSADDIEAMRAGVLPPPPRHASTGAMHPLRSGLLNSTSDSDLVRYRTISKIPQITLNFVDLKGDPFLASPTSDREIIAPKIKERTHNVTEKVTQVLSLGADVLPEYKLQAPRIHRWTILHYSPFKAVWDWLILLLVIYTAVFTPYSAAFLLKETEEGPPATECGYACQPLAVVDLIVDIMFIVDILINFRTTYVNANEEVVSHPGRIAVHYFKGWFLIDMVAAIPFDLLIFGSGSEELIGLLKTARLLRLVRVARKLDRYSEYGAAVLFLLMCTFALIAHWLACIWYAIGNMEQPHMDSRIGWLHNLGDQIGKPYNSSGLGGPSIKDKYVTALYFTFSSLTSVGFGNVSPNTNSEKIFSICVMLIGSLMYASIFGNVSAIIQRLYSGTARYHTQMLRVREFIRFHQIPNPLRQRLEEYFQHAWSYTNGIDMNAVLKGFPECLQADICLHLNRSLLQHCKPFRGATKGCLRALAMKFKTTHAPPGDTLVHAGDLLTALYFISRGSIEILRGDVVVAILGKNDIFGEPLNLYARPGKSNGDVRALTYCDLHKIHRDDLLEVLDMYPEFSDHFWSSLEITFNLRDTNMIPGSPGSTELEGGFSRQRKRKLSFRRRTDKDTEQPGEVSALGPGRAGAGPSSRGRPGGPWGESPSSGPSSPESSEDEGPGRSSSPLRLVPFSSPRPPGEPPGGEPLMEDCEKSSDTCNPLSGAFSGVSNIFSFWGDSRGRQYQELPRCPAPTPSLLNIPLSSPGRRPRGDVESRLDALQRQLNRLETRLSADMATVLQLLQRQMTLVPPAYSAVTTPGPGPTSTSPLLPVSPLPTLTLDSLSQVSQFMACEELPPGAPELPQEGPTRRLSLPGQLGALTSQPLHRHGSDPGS
Test: in vitro
Would you mind telling me the reported inhibition at 11.1 µM of each entry?
Answers are plain numbers, in %.

Required: inhibition at 11.1 µM, one value per compound below.
1. Oc1ccccc1CN1CCN(C(c2ccccc2)c2ccccc2)CC1
2. O=C(NC1CCN(Cc2ccccc2)CC1)c1cc(C(=O)NC2CCN(Cc3ccccc3)CC2)cc(C(=O)NC2CCN(Cc3ccccc3)CC2)c1

Reply:
1. 12
2. 39

----------
Biological target: hERG (Kv11.1, KCNH2) (Homo sapiens, UniProt Q12809)
Assay: in vitro
Answer Not fulfilled if inhibition at 11.1 µM is under 60%, and Fulfilled if it is 60% or more.

>>> class("CCN(CC)CCCNc1ccnc2cc3ccccc3cc12")
"Not fulfilled"
>>> class("CCOc1ccccc1CNC(=O)C1c2ccccc2C(=O)N(CC(C)C)C1c1cccs1 (stereo unspecified)")
"Fulfilled"
>>> class("CCOC(=O)c1cnc2ccc(OC)cc2c1NCc1ccccc1")
"Not fulfilled"
>>> class("COc1cccc(Nc2nc(NCCO)c3ccccc3n2)c1")
"Not fulfilled"
>>> class("CCOc1ccc(Nc2ccnc3cc(Cl)ccc23)cc1")
"Not fulfilled"
>>> class("COc1cccc(C2(C)Nc3ccccc3-c3nc4ccccc4n32)c1 (stereo unspecified)")
"Not fulfilled"
>>> class("Cn1c(C(=O)c2cccc3ccccc23)nc2ccccc21")
"Not fulfilled"
>>> class("CCCCCCc1cc2cc(-c3nc4ccccc4[nH]3)c(=Nc3ccccc3C)oc2cc1O")
"Not fulfilled"

Now turn to the next compound.
Ask: Could you verify whether the entry COCCNCC(O)Cn1c2ccc(Cl)cc2c2cc(Cl)ccc21 (stereo unspecified) shows inhibition at 11.1 µM of no less than 60%?
Reply: Fulfilled

----------
Biological target: hERG (Kv11.1, KCNH2) (Homo sapiens)
Assay: in vitro
Calls of active or inactive are those of the source. No rule for the calls is given here.
METRIC: inhibition at 11.1 µM

Answered examples (5):
>>> reported_value("O=C(NC1CCCC1)c1ccc(N2CCC(NCc3cccc(C(F)(F)F)c3)CC2)cc1")
"101%"
>>> reported_value("CC(C)(C)c1ccc(C(=O)Nc2nc3ccccc3s2)cc1")
"7% (inactive)"
>>> reported_value("CCN(CC)CCNc1ncnc2c1[nH]c1ccc(Br)cc12")
"102%"
>>> reported_value("CCN(CC)S(=O)(=O)c1ccc(-c2csc(Nc3ccc(C)c(C)c3)n2)cc1")
"-3% (inactive)"
>>> reported_value("O=C(CCl)NCCOc1ccc(Cl)cc1Cl")
"62% (active)"

Required: inhibition at 11.1 µM, one value per molecule below.
1. CCc1ccc(CNCC(O)c2ccccc2)cc1 (configuration not stated)
2. c1ccc2cc3c(Nc4ccc(N5CCOCC5)cc4)ccnc3cc2c1

Reply:
["67% (active)", "87% (active)"]

----------
Target: hERG (Kv11.1, KCNH2) (Homo sapiens)
Assay: in vitro
Would you mind telling me the reported inhibition at 11.1 µM of each entry?
Answers are plain numbers, in %.

>>> reported_value("CCN(CC)CCn1c(=N)n(CC(O)c2ccc(Cl)c(Cl)c2)c2ccccc21 (stereo not given)")
86
>>> reported_value("COc1ccc(-c2c(C)nn3c(N)c(C#N)cnc23)cc1OC")
11
>>> reported_value("O=C(NCC(c1ccsc1)N1CCCCCC1)c1ccc(C(F)(F)F)cc1 (stereo not given)")
94
>>> reported_value("Cc1cc(Nc2ccc(Cl)cc2)n2nc(C(F)(F)F)nc2n1")
59

Required: inhibition at 11.1 µM, one value per compound below.
1. O=C(NCc1ccco1)C1CCN(S(=O)(=O)c2ccc(Br)cc2)CC1
2. O=C(Nc1ccc(CN2CCOCC2)cc1)c1ccc(-c2ccc(Br)cc2)o1
3. CN(C)CCCNCc1ccc(-c2ccc(F)c(Cl)c2)o1

Reply:
[34, 98, 48]

Required: inhibition at 11.1 µM, one value per compound below.
1. COc1cccc(O)c1CN1CCC2(CCCN(Cc3ccc(F)cc3)C2)C1 (stereo not given)
2. CN1CCN(c2ccc(Nc3c4ccccc4nc4ccccc34)cc2)CC1
3. CCOc1ccc(/C=C/c2nc(=O)c3ccccc3o2)cc1

Reply:
1: 86; 2: 75; 3: 19
